molecular target: human CYP2C9 (Homo sapiens, UniProt P11712); experiment: biochemical
Sequence (P11712 whole entry): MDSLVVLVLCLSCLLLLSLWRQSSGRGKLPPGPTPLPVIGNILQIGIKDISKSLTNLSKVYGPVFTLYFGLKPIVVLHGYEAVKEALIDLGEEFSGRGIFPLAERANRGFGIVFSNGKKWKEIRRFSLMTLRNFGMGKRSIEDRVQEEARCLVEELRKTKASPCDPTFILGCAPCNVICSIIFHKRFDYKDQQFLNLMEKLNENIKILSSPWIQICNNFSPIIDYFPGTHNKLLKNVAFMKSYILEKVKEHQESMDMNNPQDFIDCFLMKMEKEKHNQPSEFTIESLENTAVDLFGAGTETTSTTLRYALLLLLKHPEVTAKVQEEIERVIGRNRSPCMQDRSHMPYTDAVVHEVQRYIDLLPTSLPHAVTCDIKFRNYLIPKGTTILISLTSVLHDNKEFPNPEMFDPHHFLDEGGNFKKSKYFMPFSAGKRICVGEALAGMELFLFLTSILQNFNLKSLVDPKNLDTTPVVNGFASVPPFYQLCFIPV
pIC50: −log10 of the molar value.
Label scheme for pIC50: lower than 6 is Criterion not met, 6 and above is Criterion met.

Answered cases to consult:
INSERT INTO assay_data (line_notation, assigned_category) VALUES
  ('O=C(Nc1ccc(S(=O)(=O)N2CCOCC2)cc1)c1cc(Cl)ccc1NS(=O)(=O)c1ccc(Cl)s1', 'Criterion met'),
  ('CCCCCOc1ccccc1/C(=C\SC)n1ccnc1', 'Criterion not met'),
  ('CCOP(=S)(OCC)SCCS(=O)(=O)CC', 'Criterion not met');

Decide: pIC50 of COc1ccc(S(=O)(=O)N2c3ccc(Cl)cc3[C@](O)(c3ccccc3Cl)[C@@H]2C(=O)N2CCC[C@H]2C(N)=O)cc1OC >= 6?
Criterion not met
